Tested on: MV4-11 cells
Experiment description: Inhibition of cell growth in MV4-11 cells (Alamar blue, 72 h)
Assay type: cell-based
Measurement context: Homo sapiens, 72 h incubation
Structures can show the parent of a compound that is named as a salt.
Items are presented alongside their recorded IC50.

Reference set (3 entries):
• CC(C)Oc1cc(CCNCC(=O)N2CCOCC2)c(Cl)cc1NC(=O)Nc1cnc(C#N)cn1 [Example 27, hydrochloride] = 135 nM
• COc1cc(CCN[C@@H](C)CN2CCOCC2)ccc1NC(=O)Nc1cnc(C#N)cn1 [Example 23, hydrochloride] = 4790 nM
• COc1cc(CCN[C@@H](C)C(=O)N2CCOCC2)c(Cl)cc1NC(=O)Nc1cnc(C#N)cn1 [Example 28, hydrochloride] = 390 nM

Problem: Using the record for COc1cc(CCNCC(=O)N2CCOCC2)c(Cl)cc1NC(=O)Nc1cnc(C#N)cn1 [Example 19, hydrochloride] , report its IC50.
Solution: 481 nM

Problem: Can you look up the measured IC50 of COc1cc(CCNC[C@@H]2CNCCO2)c(Cl)cc1NC(=O)Nc1cnc(C#N)cn1 [Example 3, hydrochloride] for me?
Solution: 173 nM

###

Tested on: MV4-11 cells
Experiment description: Inhibition of cell growth in MV4-11 cells (Alamar blue, 72 h)
Assay type: cell-based
Measurement context: Homo sapiens, 72 h incubation
Counter-ions that a name gives are not always drawn.
# strict inequality: IC50 < 200 nM yields y, everything else yields n

- N#Cc1cnc(NC(=O)Nc2ccc(CCNCC3CCCCC3)c(Cl)c2)cn1 [Example 12, hydrochloride]: n

Problem: Criterion: IC50 strictly below 200 nM. Is it met by COc1cc(CCN[C@@H](C)C2CCN(S(C)(=O)=O)CC2)c(Cl)cc1NC(=O)Nc1cnc(C#N)cn1 [Example 11, hydrochloride] ?
Solution: n

Problem: Please let me know if CC(C)Oc1cc(CCNCCN2CCOCC2)c(Cl)cc1NC(=O)Nc1cnc(C#N)cn1 [Example 8, hydrochloride] shows IC50 below 200 nM.
Solution: y

Problem: Identify whether the compound COc1cc(CCNCC2CCNCC2)c(Cl)cc1NC(=O)Nc1cnc(C#N)cn1 [Example 1, hydrochloride] records IC50 below 200 nM.
Solution: n

Problem: Is it true that IC50 reported for COc1cc(CCN[C@@H](C)C2CCN(C(=O)C3CC3)CC2)c(Cl)cc1NC(=O)Nc1cnc(C#N)cn1 [Example 10, hydrochloride] is less than 200 nM?
Solution: y

Problem: IC50 under 200 nM? Item: COc1cc(CCNCCN2CCOCC2)c(Cl)cc1NC(=O)Nc1cnc(C#N)cn1 [Example 7, hydrochloride]
Solution: n

###

Target or system: Chk-1 kinase (Homo sapiens (Human))
Sequence (O14757 whole entry): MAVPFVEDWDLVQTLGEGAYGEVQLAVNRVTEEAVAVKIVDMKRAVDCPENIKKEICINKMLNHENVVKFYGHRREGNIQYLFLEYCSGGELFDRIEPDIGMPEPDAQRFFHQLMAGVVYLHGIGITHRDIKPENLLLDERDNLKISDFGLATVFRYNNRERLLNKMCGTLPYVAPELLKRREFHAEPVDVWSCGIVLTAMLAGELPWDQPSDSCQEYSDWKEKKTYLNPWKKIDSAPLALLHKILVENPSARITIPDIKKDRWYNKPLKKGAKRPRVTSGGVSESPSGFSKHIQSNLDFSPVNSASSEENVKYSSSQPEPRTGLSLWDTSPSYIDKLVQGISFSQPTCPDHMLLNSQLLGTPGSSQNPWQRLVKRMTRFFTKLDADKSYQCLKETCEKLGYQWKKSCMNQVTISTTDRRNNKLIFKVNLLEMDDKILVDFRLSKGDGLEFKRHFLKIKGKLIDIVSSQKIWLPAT
Experiment description: Chk-1 kinase inhibiting activity (33P-ATP radiometric filter assay, CHKtide substrate)
Measurement context: recombinant full length GST-tagged CHK-1 0.5 nM, CHKtide 20 μM, 120 minutes at room temperature; read-out: IC50 against Chk-1 kinase
Counter-ions that a name gives are not always drawn.
Assay readout: pIC50
// returns pIC50 (minus log10 of molar concentration), number only

As a guide, the following entries are already answered.
* COc1cc(CCNC[C@@H]2CNCCO2)c(Cl)cc1NC(=O)Nc1cnc(C#N)cn1 [Example 3, hydrochloride] | 9.85
* COc1cc(CCNCC(=O)N2CCOCC2)c(Cl)cc1NC(=O)Nc1cnc(C#N)cn1 [Example 19, hydrochloride] | 8.72
* CC(C)Oc1cc(CCNC(=O)[C@H]2CNCCO2)c(Cl)cc1NC(=O)Nc1cnc(C#N)cn1 [Example 20, hydrochloride] | 8.15
* COc1cc(OCCNCCN2CCOCC2)c(Cl)cc1NC(=O)Nc1cnc(C#N)cn1 [Example 25, hydrochloride] | 9.21
* COc1cc(CCNC(=O)[C@H]2CNCCO2)c(Cl)cc1NC(=O)Nc1cnc(C#N)cn1 [Example 15, hydrochloride] | 7.70
* COc1cc(CCNCC2CNCCO2)c(Cl)cc1NC(=O)Nc1cnc(C#N)cn1 (stereo not shown) [Example 2, hydrochloride] | 10.05

Problem: Bench note: what pIC50 did COc1cc(CCNC(=O)CN2CCN(C)CC2)c(Cl)cc1NC(=O)Nc1cnc(C#N)cn1 [Example 17, hydrochloride] show?
Solution: 7.89

###

Catalogue of compounds with associated pIC50
Target or system: Chk-1 kinase (Homo sapiens (Human))
Experiment description: Chk-1 kinase inhibiting activity (33P-ATP radiometric filter assay, CHKtide substrate)
Measurement context: recombinant full length GST-tagged CHK-1 0.5 nM, CHKtide 20 μM, 120 minutes at room temperature; read-out: IC50 against Chk-1 kinase
Structures can show the parent of a compound that is named as a salt.
Note on pIC50: it is the negative log10 of concentration, concentration in mol/L.

Problem: // pIC50 lookup, key: COc1cc(CCN[C@@H](C)CN2CCOCC2)c(Cl)cc1NC(=O)Nc1cnc(C#N)cn1 [Example 18, hydrochloride]
Solution: 9.28

Problem: Field request: pIC50 | item: CC(C)Oc1cc(CCNC(=O)CN2CCN(C)CC2)c(Cl)cc1NC(=O)Nc1cnc(C#N)cn1 [Example 22, hydrochloride]
Solution: 8.09

Problem: I have this compound here, COc1cc(CCN[C@@H](C)C2CCN(C(=O)C3CC3)CC2)c(Cl)cc1NC(=O)Nc1cnc(C#N)cn1 [Example 10, hydrochloride] , and I need its recorded pIC50.
Solution: 9.19

Problem: Looking for the measured pIC50 of COc1cc(CCNC[C@H]2CNCCO2)c(Cl)cc1NC(=O)Nc1cnc(C#N)cn1 [Example 4, hydrochloride] , can you help?
Solution: 10.30

###

System: MV4-11 cells
Experiment description: Inhibition of cell growth in MV4-11 cells (Alamar blue, 72 h)
Format: cell-based
Measurement context: Homo sapiens, 72 h incubation
Method: Studies were carried out to test the effect of compounds on the inhibition of cell growth in MOLM-13 and MV4-11 cells. The following protocol was used: […] (d) Alamar blue 10% (v/v) was then added and incubated for a further 4 h, and fluorescent product detected using the BMG FLUOstar plate reader. (e) Media only background values were subtracted and the data analysed using a 4-parameter logistic equation in GraphPad Prism.
Where a name gives a salt, the structure may show the parent alone.
// reported IC50 per item
Write the value in µM as a bare number.

* COc1cc(CCNC[C@H]2CN(C(=O)C3CC3)CCO2)ccc1NC(=O)Nc1cnc(C#N)cn1 [Example 21, hydrochloride] | 3.76
* COc1cc(CCNCC2CNCCO2)c(Cl)cc1NC(=O)Nc1cnc(C#N)cn1 (centres unmarked) [Example 2, hydrochloride] | 0.209
* COc1cc(CCNCC(=O)N2CCN(C)CC2)c(Cl)cc1NC(=O)Nc1cnc(C#N)cn1 [Example 26, hydrochloride] | 0.8
* COc1cc(CCN[C@@H](C)CN2CCOCC2)c(Cl)cc1NC(=O)Nc1cnc(C#N)cn1 [Example 18, hydrochloride] | 0.175
* COc1cc(CCNC[C@H]2CN(C(=O)C3CC3)CCO2)c(Cl)cc1NC(=O)Nc1cnc(C#N)cn1 [Example 14, hydrochloride] | 0.202

Problem: # IC50 lookup, item COc1cc(CCNC[C@H]2CNCCO2)c(Cl)cc1NC(=O)Nc1cnc(C#N)cn1 [Example 4, hydrochloride]
Solution: 0.111

Problem: Quick one: IC50 for CC(C)Oc1cc(CCNC(=O)CN2CCN(C)CC2)c(Cl)cc1NC(=O)Nc1cnc(C#N)cn1 [Example 22, hydrochloride] ?
Solution: 0.519

Problem: Can you look up the measured IC50 of COc1cc(CCNCCN2CCN(C)CC2)c(Cl)cc1NC(=O)Nc1cnc(C#N)cn1 [Example 9, hydrochloride] for me?
Solution: 0.056

All figures here come from patent US9630931B2.
